target: human AChE (Homo sapiens)
Sequence (P22303 32-614): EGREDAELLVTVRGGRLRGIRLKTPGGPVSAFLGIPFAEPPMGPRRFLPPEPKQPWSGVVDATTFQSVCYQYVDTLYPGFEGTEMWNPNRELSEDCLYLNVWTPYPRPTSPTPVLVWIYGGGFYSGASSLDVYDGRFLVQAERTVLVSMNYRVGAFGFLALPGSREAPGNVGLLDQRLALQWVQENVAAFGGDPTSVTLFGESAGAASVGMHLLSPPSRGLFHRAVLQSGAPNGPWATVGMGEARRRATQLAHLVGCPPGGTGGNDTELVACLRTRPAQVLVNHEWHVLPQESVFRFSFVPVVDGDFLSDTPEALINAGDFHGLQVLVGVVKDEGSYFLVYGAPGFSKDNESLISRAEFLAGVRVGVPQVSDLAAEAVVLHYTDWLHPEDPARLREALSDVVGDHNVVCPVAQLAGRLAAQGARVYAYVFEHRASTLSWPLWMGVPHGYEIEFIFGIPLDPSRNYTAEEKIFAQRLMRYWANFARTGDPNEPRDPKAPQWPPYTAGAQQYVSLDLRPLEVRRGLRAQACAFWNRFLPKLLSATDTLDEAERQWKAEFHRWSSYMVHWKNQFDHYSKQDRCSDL

Molecule | IC50, µM
CN1c2ccc(OC(=O)Nc3ccccc3)cc2[C@]2(C)CCO[C@H]12 [compound 1, (−)-phensvenine] | 0.5
